Each recorded value in this set is attributed to patent US7737173B2.

Below, each entry is listed with its recorded Emax.
molecular target: human S1P3 receptor (Homo sapiens); construct: expressed in transfected cells; assay: FLIPR Ca+2 assay: ability to activate or block activation of the human S1P3 receptor in T24 cells; type: cell-based; conditions: T-24, read-out: S1P3 (% eff.)
Give just the numeric value; % need not be written.

# count of solved cases: 6
Cc1c(C(=O)NCc2ccc(Cl)cc2)c2cc(O)ccc2n1Cc1cccs1 ... 83
COc1ccccc1CNC(=O)c1c(C)n(Cc2cccs2)c2ccc(O)cc12 ... 23
Cc1c(C(=O)NCc2cc(F)cc(F)c2)c2cc(O)ccc2n1Cc1ccco1 ... 77
Cc1c(C(=O)NCc2cccc(F)c2)c2cc(O)ccc2n1Cc1cccs1 ... 85
Cc1c(C(=O)NCc2cc(F)cc(F)c2)c2cc(O)ccc2n1Cc1cccs1 ... 67
Cc1c(C(=O)NCc2ccc(F)cc2)c2cc(O)ccc2n1Cc1cccs1 ... 72

// Emax lookup, molecule = CCCCn1c(C)c(C(=O)NCc2cc(F)cc(F)c2)c2cc(O)ccc21 , result: 55

// Emax lookup, molecule = Cc1c(C(=O)NCc2cc(F)cc(F)c2)c2cc(O)ccc2n1Cc1ccccc1 , result: 53

// Emax lookup, molecule = CC(C)c1c(C(=O)NCc2ccc(F)c(F)c2)c2cc(O)ccc2n1Cc1ccccc1 , result: 98

// Emax lookup, molecule = Cc1c(C(=O)NCc2ccc(F)c(F)c2)c2cc(O)ccc2n1Cc1ccco1 , result: 97

// Emax lookup, molecule = Cc1ccc(CNC(=O)c2c(C)n(Cc3cccs3)c3ccc(O)cc23)cc1 , result: 71

// Emax lookup, molecule = CCc1c(C(=O)NCc2cc(F)cc(F)c2)c2cc(O)ccc2n1Cc1ccccc1 , result: 97

// Emax lookup, molecule = CCc1c(C(=O)NCc2ccc(F)c(F)c2)c2cc(O)ccc2n1Cc1ccccc1 , result: 98

// Emax lookup, molecule = Cc1c(C(=O)NCc2ccc(F)c(F)c2)c2cc(O)ccc2n1Cc1ccccc1 , result: 84

// Emax lookup, molecule = COc1cccc(CNC(=O)c2c(C(C)C)n(Cc3ccccc3)c3ccc(O)cc23)c1 , result: 98

// Emax lookup, molecule = Cc1c(C(=O)NCc2cccc(Cl)c2)c2cc(O)ccc2n1Cc1cccs1 , result: 38

// Emax lookup, molecule = CCCCn1c(C)c(C(=O)NCc2cccc(OC)c2)c2cc(O)ccc21 , result: 42

// Emax lookup, molecule = Cc1c(C(=O)NCc2ccc(F)c(F)c2)c2cc(O)ccc2n1Cc1cccs1 , result: 66

// Emax lookup, molecule = CCc1c(C(=O)NCc2cccc(OC)c2)c2cc(O)ccc2n1Cc1ccccc1 , result: 97

// Emax lookup, molecule = COc1cccc(CNC(=O)c2c(C)n(Cc3cccs3)c3ccc(O)cc23)c1 , result: 33

// Emax lookup, molecule = CC(C)c1c(C(=O)NCc2cc(F)cc(F)c2)c2cc(O)ccc2n1Cc1ccccc1 , result: 99

// Emax lookup, molecule = O=C(NCc1cc(F)cc(F)c1)c1c(-c2ccccc2)n(Cc2ccccc2)c2ccc(O)cc12 , result: 98

// Emax lookup, molecule = Cc1c(C(=O)NCc2ccccc2)c2cc(O)ccc2n1Cc1cccs1 , result: 48

====

target: human S1P3 receptor (Homo sapiens, UniProt Q99500); construct: expressed in transfected cells; assay: FLIPR Ca+2 assay: ability to activate or block activation of the human S1P3 receptor in T24 cells; type: cell-based
Sequence (Q99500 whole entry): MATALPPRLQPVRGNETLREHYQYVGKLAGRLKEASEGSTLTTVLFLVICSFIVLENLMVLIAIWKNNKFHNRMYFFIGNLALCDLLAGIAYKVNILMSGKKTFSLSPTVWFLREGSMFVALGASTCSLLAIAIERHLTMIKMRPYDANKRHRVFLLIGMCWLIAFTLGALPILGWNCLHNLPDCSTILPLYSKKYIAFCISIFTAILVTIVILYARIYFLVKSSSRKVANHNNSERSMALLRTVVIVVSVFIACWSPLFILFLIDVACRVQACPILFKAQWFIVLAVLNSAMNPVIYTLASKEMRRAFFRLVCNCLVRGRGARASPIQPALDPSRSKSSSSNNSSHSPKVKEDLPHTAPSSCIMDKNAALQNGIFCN
Entries are grouped by IC50 into these classes: bucket A (below 0.9 µM), bucket B (0.9 µM to below 2 µM), bucket C (2 µM or more)

Known results for molecules:
Cc1c(C(=O)NCc2cc(F)cc(F)c2)c2cc(O)ccc2n1Cc1cccs1 [Compound 11] ... bucket B
Cc1c(C(=O)NCc2ccccc2)c2cc(O)ccc2n1Cc1cccs1 [Compound 15] ... bucket B
Cc1c(C(=O)NCc2ccc(F)cc2)c2cc(O)ccc2n1Cc1cccs1 [Compound 19] ... bucket C
COc1cccc(CNC(=O)c2c(C(C)C)n(Cc3ccccc3)c3ccc(O)cc23)c1 [Compound 34] ... bucket A
Cc1c(C(=O)NCc2cccc(Cl)c2)c2cc(O)ccc2n1Cc1cccs1 [Compound 21] ... bucket B
Cc1c(C(=O)NCc2ccc(F)c(F)c2)c2cc(O)ccc2n1Cc1ccccc1 [Compound 13] ... bucket B
CCc1c(C(=O)NCc2cc(F)cc(F)c2)c2cc(O)ccc2n1Cc1ccccc1 [Compound 32] ... bucket A
CC(C)c1c(C(=O)NCc2cc(F)cc(F)c2)c2cc(O)ccc2n1Cc1ccccc1 [Compound 33] ... bucket A
Cc1c(C(=O)NCc2cc(F)cc(F)c2)c2cc(O)ccc2n1Cc1ccccc1 [Compound 3] ... bucket A
CCCCn1c(C)c(C(=O)NCc2cccc(OC)c2)c2cc(O)ccc21 [Compound 18] ... bucket C

For the record CCCCn1c(C)c(C(=O)NCc2cc(F)cc(F)c2)c2cc(O)ccc21 [Compound 6] , report the class its IC50 corresponds to. bucket C

For the record Cc1c(C(=O)NCc2ccc(F)c(F)c2)c2cc(O)ccc2n1Cc1cccs1 [Compound 4] , report the class its IC50 corresponds to. bucket B

====

target: human S1P3 receptor (Homo sapiens); construct: expressed in transfected cells; experiment: FLIPR Ca+2 assay: ability to activate or block activation of the human S1P3 receptor in T24 cells; assay type: cell-based
measurement.label: pIC50
Scale explanation: pIC50 corresponds to minus log10 of a concentration expressed in moles per litre.

// pIC50 lookup, compound = CCc1c(C(=O)NCc2ccc(F)c(F)c2)c2cc(O)ccc2n1Cc1ccccc1 [Compound 25] , result: 6.15

====

Below, each entry is listed with its recorded IC50.
molecular target: human S1P3 receptor (Homo sapiens, UniProt Q99500); construct: expressed in transfected cells; test: FLIPR Ca+2 assay: ability to activate or block activation of the human S1P3 receptor in T24 cells; assay type: cell-based; details: T24 cells stably expressing human S1P3; antagonist activity; tested 0.61 nM to 10,000 nM; read-out: S1P3 IC50
Give just the numeric value; nM need not be written.

# count of solved cases: 2
Cc1c(C(=O)NCc2ccc(F)c(F)c2)c2cc(O)ccc2n1-c1cccs1 ... 2500
Cc1c(C(=O)NCc2ccc(F)c(F)c2)c2cc(O)ccc2n1-c1ccccc1 ... 9700

// IC50 lookup, compound = Cc1c(C(=O)NCc2ccc(F)c(F)c2)c2cc(O)ccc2n1-c1ccccn1 , result: 1500

====

biological target: human S1P3 receptor (Homo sapiens); construct: expressed in transfected cells; test: FLIPR Ca+2 assay: ability to activate or block activation of the human S1P3 receptor in T24 cells; assay type: cell-based
pIC50: −log10 of the molar value.
Quick rule: pIC50 of at least 6 means fulfilled, below that means not fulfilled.

COc1ccccc1CNC(=O)c1c(C)n(Cc2cccs2)c2ccc(O)cc12 [Compound 23] ... not fulfilled
CC(C)c1c(C(=O)NCc2ccc(F)c(F)c2)c2cc(O)ccc2n1Cc1ccccc1 [Compound 28] ... fulfilled

Turning now to a further record.
Evaluate Cc1c(C(=O)NCc2ccc(Cl)cc2)c2cc(O)ccc2n1Cc1cccs1 [Compound 22] : pIC50 at minimum 6? not fulfilled

====

target: human S1P3 receptor (Homo sapiens, UniProt Q99500); construct: expressed in transfected cells; test: FLIPR Ca+2 assay: ability to activate or block activation of the human S1P3 receptor in T24 cells; assay type: cell-based
measurement.label: pIC50
Scale explanation: pIC50 corresponds to minus log10 of a concentration expressed in moles per litre.

# count of solved cases: 3
Cc1ccc(CNC(=O)c2c(C)n(Cc3cccs3)c3ccc(O)cc23)cc1 ... 5.60
Cc1c(C(=O)NCc2ccc(F)c(F)c2)c2cc(O)ccc2n1Cc1ccco1 ... 5.54
Cc1c(C(=O)NCc2cccc(F)c2)c2cc(O)ccc2n1Cc1cccs1 ... 5.49

Then this compound:
// pIC50 lookup, compound = CCc1c(C(=O)NCc2cccc(OC)c2)c2cc(O)ccc2n1Cc1ccccc1 , result: 5.72

====

biological target: human S1P3 receptor (Homo sapiens, UniProt Q99500); construct: expressed in transfected cells; assay: FLIPR Ca+2 assay: ability to activate or block activation of the human S1P3 receptor in T24 cells; type: cell-based
measurement.label: IC50 (nM)
Give just the numeric value; nM need not be written.

# count of solved cases: 2
COc1cccc(CNC(=O)c2c(C)n(Cc3cccs3)c3ccc(O)cc23)c1 ... 910
Cc1c(C(=O)NCc2cc(F)cc(F)c2)c2cc(O)ccc2n1Cc1ccco1 ... 950

Then this compound:
// IC50 lookup, compound = O=C(NCc1cc(F)cc(F)c1)c1c(-c2ccccc2)n(Cc2ccccc2)c2ccc(O)cc12 , result: 880
